# System: SK-MEL-2 melanoma
# test method notes: NCI tumour cell line growth inhibition, 48 h
Measured TGI values are reported for all entries that follow.

compound: O=C(NOCC1CC1)c1ccc(F)c(F)c1Nc1ccc(I)cc1Cl
TGI: 2.05 µM
//
compound: CCN(CC)CCCCCCCNc1c2ccc(Cl)cc2nc2ccc(OC)cc12
TGI: 3.77 µM
//
compound: CC(=O)Nc1ccc2c(C)c3c4ccccc4n(C)c3nc2n1
TGI: 47.6 µM
//
compound: COc1cc(/C=C/C(=O)c2ccc(Cl)cc2)ccc1OS(=O)(=O)c1ccc(C)cc1
TGI: 28.8 µM

Tell us which TGI value is on record for O=C1N=C(c2ccccc2)O/C1=C\c1ccccc1
> 100 µM

----------
# TGI per entry
# System: UO-31 renal
# test method notes: NCI tumour cell line growth inhibition, 48 h

compound: CC1(C)OCC(C2OC(N3O[C@H](CI)C[C@@H]3c3ccccc3)C3OC(C)(C)OC23)O1 (stereo partly specified)
TGI: > 100 µM

compound: O=C(Nc1ccc(Cl)cc1)c1cc2ccccc2cc1O
TGI: > 100 µM

compound: O=[N+]([O-])C(=C(N1CCOCC1)N1CCOCC1)/C(Cl)=C(\Cl)[N+](=O)[O-]
TGI: 18 µM

compound: O=C(O)C1CC(c2ccccc2)=NN1c1ccccc1 (stereo unspecified)
TGI: > 100 µM

compound: CN(C)c1ccc2c3c(c(=O)oc2c1)CCC3
TGI: > 100 µM

Read the entry C=CCOCn1ccc(=O)[nH]c1=O and write its reported TGI.
> 100 µM

----------
Measured TGI of individual entries
# Tested on: NCI-H23 lung
# test method notes: NCI tumour cell line growth inhibition, 48 h
Reply with just the number (in µM).

compound: O=C(Oc1ccc(CCl)cc1)c1ccccc1
numeric readout: 1.15

compound: N=C1C(=N)c2ccccc2-c2ccccc21
numeric readout: 1.92

compound: O=C(C(Br)Br)C(Br)C(Br)c1ccccc1 (centres undefined)
numeric readout: 27.5

compound: Cc1cc(Cl)ccc1N=NC(=O)NNc1ccc(Cl)cc1C
numeric readout: 29.8

compound: C=C(C)[C@@H]1CC[C@]2(C(=O)O)CC[C@]3(C)[C@H](CC[C@@H]4[C@@]5(C)CC[C@H](C(=O)/C=C/c6ccc(O)cc6)C(C)(C)[C@@H]5CC[C@]43C)[C@@H]12
numeric readout: 20.8

compound: C[C@]12CC[C@@H]3c4ccc(O)cc4CC[C@H]3[C@@H]1CC[C@@H]2NS(=O)(=O)Cc1ccc(Cl)cc1
numeric readout: 10.8

compound: C/C=C(\C)C(=O)O[C@H]1C=CC(=O)O[C@H]1CNC(=O)[C@H](C)O
numeric readout: 47.8

compound: COc1cc(/C=C/C(=O)c2ccc(Cl)cc2)ccc1OS(=O)(=O)c1ccc(C)cc1
numeric readout: 43.6

Lab note: NCI-H23 lung assay, enter TGI for CCOC(CN=c1nc(N(C)C)ss1)OCC here
65.8

State the measured TGI (NCI-H23 lung) of O=C1/C(=C\c2cccc(Oc3ccccc3)c2)SC(c2ccccc2)N1c1ccc(Cl)cc1 (centres undefined)
98.7

----------
Each entry below lists one item and its recorded TGI value.
# Test system: SK-OV-3 ovarian
# test method notes: NCI tumour cell line growth inhibition, 48 h

molecule: CS(=O)c1ccc(COP(N)(=O)N(CCCl)CCCl)cc1 (stereo not given)
target entity: SK-OV-3 ovarian
result: > 100 µM
--
molecule: CC1[C@@H](OCc2ccccc2)COC(=O)N1Cc1ccccc1 (stereo not given in full)
target entity: SK-OV-3 ovarian
result: > 100 µM
--
molecule: CC1=Cc2cc3[n-]c(cc4nc(cc5[n-]c(cc1n2)cc5C)C(C)=C4CCC(=O)O)c(CCC(=O)O)c3C.[Pd+2]
target entity: SK-OV-3 ovarian
result: 30.1 µM
--
molecule: Nc1ccccc1C#C/C=C\C#Cc1ccc(Cl)cc1Cl
target entity: SK-OV-3 ovarian
result: 80.5 µM
--
molecule: CCOP(=O)(OCC)/C(C#N)=C/c1ccco1
target entity: SK-OV-3 ovarian
result: > 100 µM

Report TGI, nothing else, for this molecule: NC1=NC(OCC2(CO)CCC2)C=C(NCC2(CO)CCC2)N1 (stereo not given)
> 100 µM

Output measured TGI for this item: Cc1ccc(S(=O)(=O)N2CCCCN(S(=O)(=O)c3ccc(C)cc3)Cc3ccccc3OCCOCCOc3c4cccc3Cc3cccc5c3OCCOCCOc3ccccc3CN(S(=O)(=O)c3ccc(C)cc3)CCCN(S(=O)(=O)c3ccc(C)cc3)Cc3ccccc3OCCOCCOc3c(cccc3C4)Cc3cccc(c3OCCOCCOc3ccccc3C2)C5)cc1
> 100 µM

Provide only the value of recorded TGI for S=C1N(c2ccc(Cl)cc2)C2=C(N=Nc3ccccc3)C(=Nc3ccccc3S2)N1c1ccccn1
31.6 µM

Fill in reported TGI for this entry: CN(C)CCCNC(=O)c1cc(NC(=O)c2cc(NC(=O)c3cc(NC(=O)CCc4c[nH]c5ccccc45)cn3C)cn2C)cn1C
> 100 µM

Please report the measured TGI for COC(=O)Nc1nc2ccccc2c(=O)[nH]1
> 100 µM
